From: patent US11447522B2

# Tested on: ovalbumin sensitized and challenged Brown Norway rats
# method description: Airway changes of ovalbumin sensitized and challenged Brown Norway rats, intratracheal administration
# Type: in vivo
# condition notes: intratracheal, 2 hours prior challenge
measured attribute: Mucus production, second line (dose type not given) (µg/kg)

>  <compound>
CCOC(=O)[C@@]1(OC(=O)C(Cl)Cl)CC[C@H]2[C@@H]3CCC4=CC(=O)C=C[C@]4(C)[C@H]3[C@@H](O)C[C@@]21C

>  <system tested>
ovalbumin sensitized and challenged Brown Norway rats

>  <relation qualifier>
=

>  <meas value>
0.1

$$$$
>  <compound>
CCC(=O)O[C@]1(C(=O)SCF)[C@H](C)C[C@H]2[C@@H]3C[C@H](F)C4=CC(=O)C=C[C@]4(C)[C@@]3(F)[C@@H](O)C[C@@]21C [FLU, fluticasone propionate]

>  <system tested>
ovalbumin sensitized and challenged Brown Norway rats

>  <relation qualifier>
=

>  <meas value>
1.0

$$$$
>  <compound>
C[C@@H]1C[C@H]2[C@@H]3C[C@H](F)C4=CC(=O)C=C[C@]4(C)[C@@]3(F)[C@@H](O)C[C@]2(C)[C@@]1(OC(=O)C(Cl)Cl)C(=O)SCF

>  <system tested>
ovalbumin sensitized and challenged Brown Norway rats

>  <relation qualifier>
=

>  <meas value>
100

$$$$
>  <compound>
CCOC(=O)[C@@]1(OC(=O)C(Cl)Cl)[C@@H](C)C[C@H]2[C@@H]3CCC4=CC(=O)C=C[C@]4(C)[C@@]3(F)[C@@H](O)C[C@@]21C

>  <system tested>
ovalbumin sensitized and challenged Brown Norway rats

>  <relation qualifier>
<

>  <meas value>
1

$$$$
